Reported shrunken log2 fold change values follow for various sequences
test system: Escherichia coli TOP10; assay: shrunken log2 fold change of peptide-encoding DNA abundance (4.5 h post-induction vs induction); higher = less antimicrobial activity (less host growth inhibition); settings: time post-induction: 4.5 h; library: site-saturation at positions 5, 18, 19, 20
Please reply with the value in numeric form only.

Worked cases, answers included:
>  <macromoleculeSequence>
RRIRCRPPRLPRPRPRPVADPRP

>  <resultNumber>
0.181

$$$$
>  <macromoleculeSequence>
RRIRDRPPRLPRPRPRPDWNPRP

>  <resultNumber>
-0.0851

$$$$
>  <macromoleculeSequence>
RRIRDRPPRLPRPRPRPEVHPRP

>  <resultNumber>
0.168

$$$$

Now, please, on to the next sequence.
Query block: Checklist item: shrunken log2 fold change tested on Escherichia coli TOP10, entry RRIRWRPPRLPRPRPRPGKEPRP , value?;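 further: peptides expressed intracellularly from a pBAD plasmid library in pooled LB shake-flask culture, induced with 0.3% L-arabinose, DNA abundance read by NGS, three biological replicates, DESeq2 with apeglm shrinkage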
Result block: -0.0139
